The following molecules each carry a recorded IC50 for Glucocorticoid receptor (Homo sapiens, UniProt P04150).

Check out these entries, answers already filled in.
Molecule	IC50
N#Cc1ccc(N2N=C3c4ccc(C(=O)O)cc4CC[C@@H]3[C@@H]2C2CCCC2)cc1 (racemic)	> 10 µM
N#Cc1ccc(N2N=C(c3ccc(C(=O)O)cc3)C[C@@H]2c2ccc(F)cc2)cc1Cl	> 10 µM

// switching to the query molecule
The measured IC50 associated with `N#Cc1ccc(N2N=C(c3ccc(C(=O)O)cc3)C[C@@H]2C2CCCC2)cc1Cl` reads > 10 µM

----------
- Study system: Mineralocorticoid receptor (Homo sapiens, UniProt P08235)
- Sequence (P08235 whole entry, the tested form may be a part): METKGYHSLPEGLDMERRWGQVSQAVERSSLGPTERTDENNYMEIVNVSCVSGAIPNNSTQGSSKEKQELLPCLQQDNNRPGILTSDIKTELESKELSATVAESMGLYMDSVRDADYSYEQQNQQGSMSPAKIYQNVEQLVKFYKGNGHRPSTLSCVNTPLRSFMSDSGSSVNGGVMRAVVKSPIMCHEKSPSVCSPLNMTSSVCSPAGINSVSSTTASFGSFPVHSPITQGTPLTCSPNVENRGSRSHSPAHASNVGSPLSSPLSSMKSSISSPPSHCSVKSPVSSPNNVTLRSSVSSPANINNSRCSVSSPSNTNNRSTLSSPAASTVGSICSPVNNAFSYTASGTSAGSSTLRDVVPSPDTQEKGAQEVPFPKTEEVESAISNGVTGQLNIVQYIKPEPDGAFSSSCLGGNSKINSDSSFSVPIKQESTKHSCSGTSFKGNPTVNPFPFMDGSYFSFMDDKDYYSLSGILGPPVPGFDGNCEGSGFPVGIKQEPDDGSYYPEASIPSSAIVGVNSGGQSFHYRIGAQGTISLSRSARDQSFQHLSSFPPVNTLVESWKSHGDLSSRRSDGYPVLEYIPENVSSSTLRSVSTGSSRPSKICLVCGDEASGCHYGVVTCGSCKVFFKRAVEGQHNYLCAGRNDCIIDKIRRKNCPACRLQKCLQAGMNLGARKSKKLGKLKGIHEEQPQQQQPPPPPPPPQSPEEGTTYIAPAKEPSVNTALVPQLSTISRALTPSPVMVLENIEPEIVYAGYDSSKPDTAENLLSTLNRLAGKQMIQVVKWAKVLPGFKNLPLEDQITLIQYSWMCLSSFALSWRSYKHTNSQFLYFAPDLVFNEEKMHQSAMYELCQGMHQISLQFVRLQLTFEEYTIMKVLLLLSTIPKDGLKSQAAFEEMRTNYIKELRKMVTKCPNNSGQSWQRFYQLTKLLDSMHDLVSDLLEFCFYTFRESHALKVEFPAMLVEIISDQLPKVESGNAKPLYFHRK
Recorded metric: IC50 (nM)
Report the value in nM with no unit label.

As a guide, the following entries are already answered.
Molecule	Unit descriptor	IC50
CC(C)C1CC(c2ccc(C(=O)O)cc2)=NN1c1ccc(C#N)c(Cl)c1 (racemic)	nM	383
N#Cc1ccc(N2N=C(c3ccc(C(=O)O)cc3)CC2c2ccc(F)cc2)cc1Cl (racemic)	nM	56
COc1cc(C(=O)O)ccc1C1=NN(c2ccc(C#N)c(Cl)c2)[C@@H](C2CCCC2)C1	nM	2
N#Cc1ccc(N2N=C(c3ccc(C(=O)O)cc3)CC2c2ccc(F)cc2)cc1C(F)(F)F (racemic)	nM	127
N#Cc1ccc(N2N=C(c3ccc(C(=O)O)c(OC(F)(F)F)c3)C[C@@H]2C2CCCC2)cc1Cl	nM	80
N#Cc1ccc(N2N=C(c3ccc(C(=O)O)c(OCCCO)c3)C[C@@H]2C2CCCC2)cc1Cl	nM	13

The recorded IC50 for entry N#Cc1ccc(N2N=C(c3ccc(C(=O)O)cc3)CC2C2CCCC2)cc1Cl (racemic) equals 54

# IC50 (molecule: Cc1cc(N2N=C3c4ccc(C(=O)O)cc4CO[C@H]3[C@H]2C2CCCC2)ccc1C#N (racemic) ) is 39

So for `Cc1nc(C)c(C2=NN(c3ccc(C#N)cc3)[C@@H](c3ccc(F)cc3)C2)s1` , the logged IC50 turned out to be 32

----------
Here, each record is paired with measured bioavailability data.
- Assay method text: Oral bioavailability in Sprague-Dawley rat at 2 mg/kg
- Assay type: ADME, organism-based
- Condition parameters: in vivo
State just the number; it will be interpreted in %.

Compound	Quantitative readout
Cc1cc(N2N=C3c4ccc(C(=O)O)cc4CO[C@@H]3[C@@H]2C2CCCC2)ccc1C#N	57
N#Cc1ccc(N2N=C3c4ccc(C(=O)O)cc4CC[C@@H]3[C@@H]2C2CCCC2)cc1Cl [PF-03882845]	86
CCOc1cc(C2=NN(c3ccc(C#N)c(Cl)c3)[C@@H](C3CCCC3)C2)ccc1C(=O)O	83
N#Cc1ccc(N2N=C(c3ccc(C(=O)O)cc3)C[C@@H]2c2ccc(F)cc2)cc1Cl	46
N#Cc1ccc(N2N=C(c3ccc(C(=O)O)cc3)C[C@@H]2C2CCCC2)cc1Cl	100

Now examine the next entry.
Summary for this compound, `COc1cc(C2=NN(c3ccc(C#N)c(Cl)c3)[C@@H](C3CCCC3)C2)ccc1C(=O)O` : bioavailability is 57

----------
- Study system: Mineralocorticoid receptor (Homo sapiens, UniProt P08235);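 further: antagonism at Gal4-fused mineralocorticoid receptor in human Huh7 cells, measured by luciferase reporter gene read-out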
Recorded metric: pIC50
In plain terms, pIC50 is the concentration in mol/L turned into minus its base-10 logarithm.

Compound	Study system	Recorded metric	Quantitative readout
COc1cc(N2N=C3c4ccc(C(=O)O)cc4CC[C@@H]3[C@@H]2C2CCCC2)ccc1C#N (racemic)	Mineralocorticoid receptor (Homo sapiens, UniProt P08235)	pIC50	8.15
N#Cc1ccc(N2N=C3c4ccc(C(=O)O)cc4CC[C@@H]3[C@@H]2C2CCC2)cc1Cl (racemic)	Mineralocorticoid receptor (Homo sapiens, UniProt P08235)	pIC50	7.68
N#Cc1ccc(N2N=C3c4ccc(C(=O)O)cc4CC[C@@H]3[C@@H]2C2CCCC2)cc1 (racemic)	Mineralocorticoid receptor (Homo sapiens, UniProt P08235)	pIC50	7.05
N#Cc1ccc(N2N=C3c4ccc(C(=O)O)cc4CO[C@H]3[C@H]2C2CCCC2)cc1Cl (stereo in doubt)	Mineralocorticoid receptor (Homo sapiens, UniProt P08235)	pIC50	6.84
N#Cc1ccc(N2N=C(c3ccc(C(=O)O)cc3)C[C@H]2c2ccc(F)cc2)cc1	Mineralocorticoid receptor (Homo sapiens, UniProt P08235)	pIC50	5.08

Param item: N#Cc1ccc(N2N=C3c4ccc(C(=O)O)cc4CC[C@@H]3[C@@H]2c2ccc(F)cc2)cc1 (racemic) ; param system: Mineralocorticoid receptor (Homo sapiens, UniProt P08235); output pIC50: 6.26

Record `N#Cc1ccc(N2N=C(c3ccc(C(=O)O)c(F)c3)C[C@@H]2C2CCCC2)cc1Cl` has Mineralocorticoid receptor (Homo sapiens, UniProt P08235) pIC50 equal to 7.28

Bench note, Mineralocorticoid receptor (Homo sapiens, UniProt P08235): N#Cc1ccc(N2N=C(c3ccc(C(=O)O)cc3)CC2c2cccs2)cc1 (racemic) , pIC50 reads 6.12

Field pIC50 (system: Mineralocorticoid receptor (Homo sapiens, UniProt P08235)) for entry N#Cc1ccc(N2N=C3c4ccc(C(=O)O)cc4CO[C@@H]3[C@@H]2c2ccc(F)cc2)cc1Cl (racemic) = 6.07

Result for COc1ccc(N2N=C(c3ccc(C(=O)O)cc3)CC2c2ccc(F)cc2)cc1 (racemic) , tested on Mineralocorticoid receptor (Homo sapiens, UniProt P08235), pIC50: 5.84

Field pIC50 (system: Mineralocorticoid receptor (Homo sapiens, UniProt P08235)) for entry COc1cccc(C2CC(c3ccc(C(=O)O)cc3)=NN2c2ccc(C#N)cc2)c1 (racemic) = 5.80

// returns pIC50 for COc1cc(C2=NN(c3ccc(C#N)c(Cl)c3)[C@@H](C3CCCC3)C2C)ccc1C(=O)O (single isomer, unassigned) with Mineralocorticoid receptor (Homo sapiens, UniProt P08235); value = 7.16

Let me check: N#Cc1ccc(N2N=C(c3ccc(C(=O)O)cc3)CC2C2CCCC2)cc1 (racemic) , system Mineralocorticoid receptor (Homo sapiens, UniProt P08235), measured pIC50 is 6.82

The observed pIC50 for Cc1cc(N2N=C(c3ccc(C(=O)O)cc3)CC2c2ccc(F)cc2)ccc1C#N (racemic) when tested with Mineralocorticoid receptor (Homo sapiens, UniProt P08235) stands at 7.25

Observed pIC50, Mineralocorticoid receptor (Homo sapiens, UniProt P08235), `N#Cc1ccc(N2N=C(c3ccc4[nH]c(=O)oc4c3)C[C@@H]2c2ccc(F)cc2)cc1` : 7.39
